# System: PPARg:RXRa IVT, anti-PPARg (NR concentration 270 nM, RXRa partner concentration 90 nM)
# ASSAY_NOTES: PBM binding z-score (relative to random genomic background probes); higher = stronger binding; sequences stand for … in GC…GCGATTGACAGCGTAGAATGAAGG
# binarize PBM binding z-score: threshold 3 inclusive, high side TRUE, low side FALSE

Solved cases (2 shown):
{"columns": ["CHAIN_SEQUENCE", "CLASS_NAME"],
 "data": [
  ["TCTTGTACATCAAAGGTTAAGAAAGCCGAAGCCT", "FALSE"],
  ["CCTACTGGGCCATTCAGAGGTCGTTGATCATATG", "TRUE"]
]}

Quick check, PBM binding z-score >= 3? AATACAGGGTCACTAGGCCAGAGTAGGTACGAAT TRUE

Then ACTTACGGGTCAACGAGTTTATAGCACGCGTATA ? TRUE

Then AATACAGGGTCATCGTAGTCCAGAGTACGCACAG ? TRUE

Then CCTAATGGGCCAAGGTCATTGATCAGTCAAAGCA ? FALSE

Then GTACCAAGGTGAAAAGGTCGTTGATGAGTAGGCG ? FALSE

Then TAGCCTAGGGCATGGGCCAGTATACCACGCGAAC ? FALSE

Then CGAACGAGGGCATGAGTTGATAGCGAATGCCGAT ? FALSE

Then ATCTCTAGGTAACAGGTTCAGTGAAAGAGAGGAC ? TRUE
